Each item that follows carries a reported inhibition at 10 µM.
# Tested on: SF-295
# measurement_notes: NCI single dose screen, SF-295
# Type: cell-based
# measurement_conditions: Homo sapiens; SF-295, CNS cancer; single dose 10^−5 M; read-out: growth inhibition percentage
measured_parameter: inhibition at 10 µM

> print(dat)
                                    compound  reported
 1  CN1c2ccccc2C(=O)N(NC(=O)Nc2ccccc2)C1c1ccc([N+](=O)[O-])cc1 (stereo not shown)     < 10%
 2  CN1c2ccccc2C(=O)N(NC(=O)Nc2ccc(F)cc2)C1c1ccc(F)cc1 (stereo not shown)     < 10%
 3  CN1c2ccccc2C(=O)N(NC(=O)Nc2ccccc2)C1c1ccccc1 (stereo not shown)     < 10%
 4  CN1c2ccccc2C(=O)N(NC(=O)Nc2ccc(F)cc2)C1c1ccccc1 (stereo not shown)     < 10%
 5  CN1c2ccccc2C(=O)N(NC(=O)Nc2ccc(F)cc2)C1c1ccc([N+](=O)[O-])cc1 (stereo not shown)     < 10%
 6  COc1ccc(C2N(NC(=O)Nc3ccc(F)cc3)C(=O)c3ccccc3N2C)cc1 (stereo not shown)     < 10%
 7      CN1CN(NC(=O)Nc2ccccc2)C(=O)c2ccccc21     < 10%
 8  CN1c2ccccc2C(=O)N(NC(=O)Nc2ccccc2)C1c1ccc(F)cc1 (stereo not shown)     < 10%
 9  CC1N(NC(=O)Nc2ccc(F)cc2)C(=O)c2ccccc2N1C (stereo not shown)     < 10%
10  COc1ccc(NC(=O)NN2C(=O)c3ccccc3N(C)C2c2ccc(OC)cc2)cc1 (stereo not shown)     < 10%

* * *

# study_system: human recombinant COX-2 (Homo sapiens, UniProt P35354)
# Sequence (P35354 18-604): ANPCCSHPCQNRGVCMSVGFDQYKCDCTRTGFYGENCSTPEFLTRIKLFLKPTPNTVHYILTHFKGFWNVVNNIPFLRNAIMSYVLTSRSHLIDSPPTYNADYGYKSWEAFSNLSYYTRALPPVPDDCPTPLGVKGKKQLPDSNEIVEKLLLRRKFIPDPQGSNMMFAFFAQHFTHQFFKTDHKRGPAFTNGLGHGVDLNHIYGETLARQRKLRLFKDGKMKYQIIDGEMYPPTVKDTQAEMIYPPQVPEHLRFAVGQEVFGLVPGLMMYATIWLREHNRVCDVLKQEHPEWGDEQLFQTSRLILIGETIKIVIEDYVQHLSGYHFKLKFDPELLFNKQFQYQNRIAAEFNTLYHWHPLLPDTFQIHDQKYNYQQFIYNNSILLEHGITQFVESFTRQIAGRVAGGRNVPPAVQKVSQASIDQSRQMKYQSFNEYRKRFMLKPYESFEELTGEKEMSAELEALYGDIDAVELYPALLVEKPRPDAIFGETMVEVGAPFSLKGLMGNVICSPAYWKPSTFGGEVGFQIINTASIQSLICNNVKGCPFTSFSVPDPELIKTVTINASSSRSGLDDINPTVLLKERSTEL
# measurement_notes: In vitro COX-2 inhibition assay kit (Cayman)
# Assay type: biochemical
# measurement_conditions: Selectivity index = COX-1 IC50/COX-2 IC50
# cutoff 5 applies to COX-2 SI; >= gives yes, < gives no

> print(dat)
                                   compound  assigned.label
1  CN1c2ccccc2C(=O)N(NC(=O)Nc2ccc(F)cc2)C1c1ccc(F)cc1 (stereo not drawn)             yes
2      CN1CN(NC(=O)Nc2ccccc2)C(=O)c2ccccc21              no
3  CN1c2ccccc2C(=O)N(NC(=O)Nc2ccccc2)C1c1ccc([N+](=O)[O-])cc1 (stereo not drawn)             yes
4  CC1N(NC(=O)Nc2ccc(F)cc2)C(=O)c2ccccc2N1C (stereo not drawn)              no
5  COc1ccc(C2N(NC(=O)Nc3ccc(F)cc3)C(=O)c3ccccc3N2C)cc1 (stereo not drawn)             yes
6  CN1c2ccccc2C(=O)N(NC(=O)Nc2ccccc2)C1c1ccc(F)cc1 (stereo not drawn)              no
7  COc1ccc(NC(=O)NN2C(=O)c3ccccc3N(C)C2c2ccc(OC)cc2)cc1 (stereo not drawn)             yes
8  CN1c2ccccc2C(=O)N(NC(=O)Nc2ccccc2)C1c1ccccc1 (stereo not drawn)              no
9  CN1c2ccccc2C(=O)N(NC(=O)Nc2ccc(F)cc2)C1c1ccccc1 (stereo not drawn)              no

* * *

# study_system: soybean 15-LOX (Glycine max)
# Sequence (P08170 whole entry): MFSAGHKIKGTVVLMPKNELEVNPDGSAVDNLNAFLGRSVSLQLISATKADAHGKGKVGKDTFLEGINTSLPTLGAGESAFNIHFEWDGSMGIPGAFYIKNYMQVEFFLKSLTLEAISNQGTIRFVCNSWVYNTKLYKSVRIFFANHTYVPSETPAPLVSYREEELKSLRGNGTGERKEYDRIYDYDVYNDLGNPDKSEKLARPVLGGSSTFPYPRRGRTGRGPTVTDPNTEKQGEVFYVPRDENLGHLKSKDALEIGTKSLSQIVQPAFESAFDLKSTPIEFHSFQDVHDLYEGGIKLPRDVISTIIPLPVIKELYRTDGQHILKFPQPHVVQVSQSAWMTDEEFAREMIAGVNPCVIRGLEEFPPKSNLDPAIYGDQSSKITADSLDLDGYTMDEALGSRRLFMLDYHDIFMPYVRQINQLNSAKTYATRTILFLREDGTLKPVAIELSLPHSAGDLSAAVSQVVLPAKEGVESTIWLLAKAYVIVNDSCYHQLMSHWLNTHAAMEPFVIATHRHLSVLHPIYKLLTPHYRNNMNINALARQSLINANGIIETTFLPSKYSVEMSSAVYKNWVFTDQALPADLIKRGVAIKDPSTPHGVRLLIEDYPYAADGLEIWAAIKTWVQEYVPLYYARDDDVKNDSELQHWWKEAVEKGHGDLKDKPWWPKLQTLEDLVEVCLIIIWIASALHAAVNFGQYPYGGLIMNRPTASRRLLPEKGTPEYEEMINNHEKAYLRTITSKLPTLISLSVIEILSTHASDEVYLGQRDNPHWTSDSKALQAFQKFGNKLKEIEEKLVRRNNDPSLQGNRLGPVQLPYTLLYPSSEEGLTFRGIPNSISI
pIC50: −log10 of the molar value.
Each item that follows carries a reported pIC50.
measured_parameter: pIC50

> print(dat)
                                   compound  reported
1  CN1c2ccccc2C(=O)N(NC(=O)Nc2ccc(F)cc2)C1c1ccccc1 (centres unmarked) [Compound 6m]      5.65
2  CN1c2ccccc2C(=O)N(NC(=O)Nc2ccccc2)C1c1ccc([N+](=O)[O-])cc1 (centres unmarked) [Compound 6e]      5.75
3  CN1c2ccccc2C(=O)N(NC(=O)Nc2ccc(F)cc2)C1c1ccc(F)cc1 (centres unmarked) [Compound 6n]      5.70
4  CN1CN(NC(=O)Nc2ccccc2)C(=O)c2ccccc21 [Compound 6a]      5.83
5  COc1ccc(C2N(NC(=O)Nc3ccc(F)cc3)C(=O)c3ccccc3N2C)cc1 (centres unmarked) [Compound 6p]      5.41
